B1: library; numbered along this chain (parent)
chain: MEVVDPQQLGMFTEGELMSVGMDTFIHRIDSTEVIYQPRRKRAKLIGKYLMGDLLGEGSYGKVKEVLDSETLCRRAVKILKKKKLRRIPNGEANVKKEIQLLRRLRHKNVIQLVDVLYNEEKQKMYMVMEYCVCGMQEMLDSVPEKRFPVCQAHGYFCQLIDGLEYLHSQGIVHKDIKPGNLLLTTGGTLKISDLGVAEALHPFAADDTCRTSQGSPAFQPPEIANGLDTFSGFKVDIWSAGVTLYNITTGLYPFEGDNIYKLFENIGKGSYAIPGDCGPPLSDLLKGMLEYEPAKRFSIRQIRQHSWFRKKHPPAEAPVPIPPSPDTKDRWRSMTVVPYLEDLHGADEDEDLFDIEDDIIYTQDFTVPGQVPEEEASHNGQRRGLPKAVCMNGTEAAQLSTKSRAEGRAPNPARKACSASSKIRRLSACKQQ

Variants of: B1
test: STK11 functional score (HeLa growth suppression), rescaled enrichment; synonymous median = 1, nonsense median = 0 (normalised score)
particulars: with HeLa; variant type: missense
experimentalReadout: STK11 functional score

- sequenceChange: "E65Y"
  obsValue: 1.05
- sequenceChange: "I88Y"
  obsValue: 1.67
- sequenceChange: "Q137L"
  obsValue: 1.27
- sequenceChange: "C151Q"
  obsValue: 1.54
- sequenceChange: "A406E"
  obsValue: 1.45
- sequenceChange: "E265D"
  obsValue: 1.31
- sequenceChange: "R103P"
  obsValue: 0.985
- sequenceChange: "I161C"
  obsValue: 1.03
- sequenceChange: "L344V"
  obsValue: 1.42
- sequenceChange: "E199N"
  obsValue: 1.54
- sequenceChange: "Q399C"
  obsValue: 1.23
- sequenceChange: "E33W"
  obsValue: 0.795
- sequenceChange: "E199I"
  obsValue: 0.977
- sequenceChange: "A218Y"
  obsValue: 1.34
- sequenceChange: "R383C"
  obsValue: 1.22
- sequenceChange: "N90L"
  obsValue: 1
- sequenceChange: "E293M"
  obsValue: 0.995
- sequenceChange: "F25C"
  obsValue: 1.63
- sequenceChange: "G10C"
  obsValue: 1.4
- sequenceChange: "P323A"
  obsValue: 1.15
- sequenceChange: "P222H"
  obsValue: 0.314
- sequenceChange: "G251W"
  obsValue: -0.00281
